Test system: K4 kissing-loop RNA reporter;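 note: bound reporter read as fluorescence of individual clusters on recovered sequencing chips by microscopy, with normalized cluster intensities fitted with a binding model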
Method Notes: apparent KD of K4 kissing-loop reporter; higher = weaker reporter binding
Experimental Parameters: Eterna round: R107; input ligand: tryptophan 2.4 mM
Reported Property: apparent KD of K4 kissing-loop reporter (nM)
Please respond with the number in nM and leave the unit unwritten.

AGUGAUGUGGGAAGGAGCGCUACAUCACUUCAGUGAUGUUGAAGUGAUGAAUUAGUGAUGUAGCAGGUAGGUCGCCUAGAUGUUA [KL-XARG-B12] ... 51.3
UGAUACCAGACUGAUACCAGCCACAGAGUCAAAGACUCUGAAAGGGAAACCAGUGAUGUUGGCCCUUGGCAGCAGUCUGGUAUCU [TheoBX 23 #SwitchBubble #StaticStem] ... 431

We next turn to a different sequence, shown below.
Query: apparent KD of K4 kissing-loop reporter; subject: CGCAGUGAUGUUGCUUUUAUUCUUGGUUAACGAGGACCGGUACGGCCGCCACUCGAUUUCUAUCUAUUCCAGUGUUUUUUUGAGU [JR_ExcTryptoA_Sub004]
Result: 195
